STUDY TARGET: human α2C adrenergic receptor (Homo sapiens, UniProt P18825)
Sequence (P18825 whole entry): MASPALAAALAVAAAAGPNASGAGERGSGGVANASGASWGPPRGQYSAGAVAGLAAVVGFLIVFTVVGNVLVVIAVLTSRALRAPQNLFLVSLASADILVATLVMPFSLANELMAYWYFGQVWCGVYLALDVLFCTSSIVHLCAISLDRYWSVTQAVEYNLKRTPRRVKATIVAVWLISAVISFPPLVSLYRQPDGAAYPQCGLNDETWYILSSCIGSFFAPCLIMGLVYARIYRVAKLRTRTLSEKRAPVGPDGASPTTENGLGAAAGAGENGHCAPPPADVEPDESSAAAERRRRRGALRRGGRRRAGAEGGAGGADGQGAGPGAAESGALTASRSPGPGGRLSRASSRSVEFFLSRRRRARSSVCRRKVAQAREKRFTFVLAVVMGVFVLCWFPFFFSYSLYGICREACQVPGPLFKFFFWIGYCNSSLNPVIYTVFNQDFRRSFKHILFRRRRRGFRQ
Please assign label 0 whenever Ki is at or above 4000 nM, and label 1 whenever it is below.

**Q:** # check: Ki < 4000 nM for Cc1cc(NC(=N)N)nc2ccc(Cl)cc12 [Compound 4005A]
**A:** label 1

**Q:** # check: Ki < 4000 nM for CCc1ccc2c(C)nc(NC(=N)N)nc2c1 [Compound 1020A]
**A:** label 0

**Q:** # check: Ki < 4000 nM for CCc1ccc2nc(NC(=N)N)nc(C)c2c1 [Compound 1003A]
**A:** label 0

**Q:** # check: Ki < 4000 nM for CCC(C)c1ccc2nc(NC(=N)N)nc(C)c2c1 (stereo not drawn) [Compound 2002A]
**A:** label 1

Next:
**Q:** # check: Ki < 4000 nM for CCc1ccc2nc(NC(=N)N)cc(C)c2c1 [Compound 4002A]
**A:** label 1

**Q:** # check: Ki < 4000 nM for CCCCCc1ccc2nc(NC(=N)N)nc(C)c2c1 [Compound 2001A]
**A:** label 1

Provenance of the data: patent US20030176314A1
